Values were extracted from ChEMBL document CHEMBL4513216.

Test: Toxicity liver stage against HepG2, at 10uM
Type: cell-based
Set-up: test concentration 10 uM, cell line HepG2-A16-CD81EGFP
Details: human, HepG2-A16-CD81EGFP cells; read-out: INHIBITION
measured-parameter: cytotoxicity at 10 µM (%)

>>> df
                                    compound     measured_parameter  result
 0  O=C(N1CCCO1)[C@]12COC[C@H]1CN(Cc1cccnc1)C2  cytotoxicity at 10 µM    8.25
 1  Cc1cccc(OCC2CCCN(C(=O)CN(C)C3CCNCC3)C2)c1 (configuration not stated)  cytotoxicity at 10 µM    -8.4
 2  CCN1CC2(CC1=O)CN(Cc1ccc(C)o1)CCN(C(=O)C(C)C)C2 (configuration not stated)  cytotoxicity at 10 µM    2.84
 3  CC(NC(=O)c1cccs1)C(=O)NS(=O)(=O)c1cccc(C#N)c1 (configuration not stated)  cytotoxicity at 10 µM   -7.23
 4  CC(=O)N1CCN(Cc2ccc(Cl)c(F)c2)CC(O)C1 (configuration not stated)  cytotoxicity at 10 µM   -1.48
 5  COCCC1(C(=O)O)CCCN(CC(=O)NCCc2ccccc2)C1 (configuration not stated)  cytotoxicity at 10 µM    2.66
 6  CN(C)C(=O)N1CC[C@@H](O)[C@@H]1Cc1cnn(C)c1  cytotoxicity at 10 µM    7.02
 7           N#CCc1ccc(NC(=O)Cn2cc(I)cn2)cc1  cytotoxicity at 10 µM    8.44
 8  CCOC(=O)N1CCN(C(=O)Cc2c(C)nc(C)[nH]c2=O)CC1  cytotoxicity at 10 µM   -6.31
 9    O=C(CCOc1ccc(Cl)cc1)N1CCN(c2cnccn2)CC1  cytotoxicity at 10 µM   -2.65
10  Cc1ccc(NC2CCN(C(=O)c3cccc4c3ccn4C)CC2)nn1  cytotoxicity at 10 µM   -17.3
11          O=C(NCc1nnc2n1CCC2)N1CCc2sccc2C1  cytotoxicity at 10 µM   -12.5
12       c1cnc(N2CCC3(CCCN(CC4CC4)C3)CC2)nc1  cytotoxicity at 10 µM   -3.24
13  Cc1cc(NC(=O)NCC2CCOC2)no1 (configuration not stated)  cytotoxicity at 10 µM    4.43
14     CN(C)C(=O)N1CCN(CCn2nc3ccccn3c2=O)CC1  cytotoxicity at 10 µM   0.562
15  Cn1cnc(S(=O)(=O)N2CCN(CC3CC3)c3ncccc3C2)c1  cytotoxicity at 10 µM    -160
16           CCOc1ccc(C(=O)NCCCNc2ncccn2)cc1  cytotoxicity at 10 µM    11.5
17  Cn1cnc2c1CCN(CC(O)c1ccc3c(c1)OCCO3)C2 (configuration not stated)  cytotoxicity at 10 µM   -13.7
18  COc1ccc(CC2CN(C3CCSCC3)CCO2)cc1 (configuration not stated)  cytotoxicity at 10 µM    4.49
19  CC(C)c1n[nH]c(C2CN(C(=O)c3cc4c(s3)CCC4)CCO2)n1 (configuration not stated)  cytotoxicity at 10 µM     -11
20  CC(C)C[C@H](NC(=O)Cn1ccc2c(Cl)cccc21)C(=O)O  cytotoxicity at 10 µM    5.19
21                 CCCN(CCC)C(=O)c1cnn(C)c1C  cytotoxicity at 10 µM    -128

###

Test: Toxicity liver stage against HepG2, at 10uM
Format: cell-based
Set-up: test concentration 10 uM, cell line HepG2-A16-CD81EGFP
Conditions: human, HepG2-A16-CD81EGFP cells; read-out: INHIBITION
measured-parameter: cytotoxicity at 10 µM (%)

                                   compound  output_unit  result
0     Cc1nc(CN2CCc3nn(C(C)C)c(=O)cc3C2)oc1C            %   -7.52
1  CN(Cc1nc(-c2ccccc2)no1)C(=O)CNS(C)(=O)=O            %  0.0773
2             Cc1cc(CS(=O)(=O)NC2CCCCC2)on1            %    2.92
3          CN1CCN(c2nsc(-c3ccccc3)c2C#N)CC1            %    1.28
4               COc1ccc(Br)cc1SCCS(C)(=O)=O            %    2.71
5  O=C(C1CCOC1)N1C[C@H]2CN(Cc3ccncc3)C(=O)[C@H]2C1 (some centres not stated)            %    -105
6  CCOC(=O)c1c(NC(=O)C2CCN(C(C)=O)CC2)sc(C)c1CC            %    10.9

###

# cytotoxicity at 10 µM annotations
Experiment: Toxicity liver stage against HepG2, at 10uM
Assay type: cell-based
Design: test concentration 10 uM, cell line HepG2-A16-CD81EGFP
Conditions: human, HepG2-A16-CD81EGFP cells; read-out: INHIBITION
measured-parameter: cytotoxicity at 10 µM (%)

                                    molecule     measured_parameter  result
 0  CCC(CC)C(CNC(=O)Nc1ccc(OC)cc1)N1CCOCC1 (stereo not given)  cytotoxicity at 10 µM   -2.86
 1  CN(CC(F)(F)F)C(=O)CNC(=O)N1CCC(N2CCCC2)C1 (stereo not given)  cytotoxicity at 10 µM    3.72
 2  CCOC1CCN(C(=O)c2ccc(-n3ncc(C#N)c3N)cc2)CC1  cytotoxicity at 10 µM    -1.1
 3        CCOCc1cc(CN2CCn3c(CO)nnc3C2)ccc1OC  cytotoxicity at 10 µM   -37.2
 4         COCCN1CCN(CCCc2nnnn2-c2ccccc2)CC1  cytotoxicity at 10 µM    5.04
 5  COc1ccnc(N2CCN(C(=O)c3cccc(C#N)c3)CC2)n1  cytotoxicity at 10 µM   -18.2
 6  Cc1cc(C(F)(F)F)c2c(=O)n(Cc3ccon3)n(C)c2n1  cytotoxicity at 10 µM    5.85
 7  CNC(=O)C1(C)CCCN1Cc1cnn(C)c1C (stereo not given)  cytotoxicity at 10 µM    5.45
 8        COc1ccc(C(=O)Nc2cccc(SC)c2)c(OC)n1  cytotoxicity at 10 µM    13.2
 9  CN1[C@@H](C(=O)NCC2CC2)C[C@H]2CN(Cc3ccsc3)C[C@H]21  cytotoxicity at 10 µM  -0.213
10  O=S(=O)(C1CC1)N1CCC2(COCc3cnc(-c4cccnc4)nc32)C1 (stereo not given)  cytotoxicity at 10 µM    -115
11         CNc1cc(-c2nc(CCN3CCCC3=O)no2)ccn1  cytotoxicity at 10 µM    7.46
12  CC(=O)N1CCC[C@H]1C(=O)NCCCN(C(C)C)S(C)(=O)=O  cytotoxicity at 10 µM     -13
13  CCNC(=O)[C@@H]1C[C@@H](n2cc(CC3CCCCC3)nn2)CN1  cytotoxicity at 10 µM    5.42
14  CC(=O)N1CCC2(CC1)CC(N1CCOCC1)c1ccc(C)cc12 (stereo not given)  cytotoxicity at 10 µM    -137
15  Cc1cc(CN(C2CC2)C(C)C(C)C)no1 (stereo not given)  cytotoxicity at 10 µM   0.519
16  O=C(NC1CCCC1)C1(Cc2cc(C3CCOC3)no2)CCNCC1 (stereo not given)  cytotoxicity at 10 µM   -1.57
17    O=S(=O)(C1CC1)N1CCC2(CN(c3ccccn3)C2)C1  cytotoxicity at 10 µM    5.25
18  CCC(C(=O)N(C)Cc1cc(-c2ccccc2)n[nH]1)n1cccn1 (stereo not given)  cytotoxicity at 10 µM   -7.35
19  Cc1nnc(N2CCOC(CN(C)C)C2)c(C#N)c1C (stereo not given)  cytotoxicity at 10 µM   -9.95
20  Cc1cc2n(n1)[C@@H](C(F)(F)F)C[C@@H](C1CCN(C(=O)C(C)C)CC1)N2  cytotoxicity at 10 µM     -30
21     COCc1ncc(CN2CCC(Oc3ccc(OC)cc3)CC2)cn1  cytotoxicity at 10 µM   -5.72
22  CC(C)(C)S(=O)(=O)c1ccc(N2CCC(n3cccn3)CC2)cn1  cytotoxicity at 10 µM    22.3
23         CCc1ncncc1C(=O)N1CCN(Cc2ccsc2)CC1  cytotoxicity at 10 µM   0.956
24     COc1ccc(-c2cc(C3CC3)c(C#N)c(N)n2)cc1F  cytotoxicity at 10 µM   -2.84
25  CCn1ccnc1CN1CCN(Cc2cccnc2)CC1C (stereo not given)  cytotoxicity at 10 µM  -0.191
26      O=C(c1ccc(Cn2cccc2)cc1)N1CCN(CCO)CC1  cytotoxicity at 10 µM   -3.69
27  CS(=O)(=O)NCC1CCCCN1Cc1ccccc1C#N (stereo not given)  cytotoxicity at 10 µM   -11.5
28  COCC1Cn2nnc(-c3cnn(C)c3)c2CN1Cc1ccco1 (stereo not given)  cytotoxicity at 10 µM   -9.44
29          Cc1sc(-n2cnnn2)c(C(=O)NC(C)C)c1C  cytotoxicity at 10 µM    2.83
30    CN(Cc1cccnc1)C(=O)NC1CCN(Cc2ccccn2)CC1  cytotoxicity at 10 µM   -18.2
31           CNc1oc(COc2ccc3c(c2)OCO3)nc1C#N  cytotoxicity at 10 µM   -58.3
32  Cn1cc(CN2C[C@@H]3COC[C@]3(CNC(=O)c3ccco3)C2)cn1  cytotoxicity at 10 µM   -73.1
33  CC(C)n1ncc2c1NC(=O)CC2c1ccccc1Cl (stereo not given)  cytotoxicity at 10 µM    33.5
34  CC(C)c1cc(C(=O)N2CCN(CC3CC3)[C@@H]3CS(=O)(=O)C[C@@H]32)on1  cytotoxicity at 10 µM    3.05
